assay: total protein half-life in vivo (active degradation + dilution); higher = more stable protein; settings: wild type E. coli NCM3722; growth: C-lim chemostat; doubling time 12 h
propertyMeasured: total protein half-life in vivo (h)

itemSequence	propertyMeasured	readoutValue
MTMKKLLIIILPVLLSGCSAFNQLVERMQTDTLEYQCDEKPLTVKLNNPRQEVSFVYDNQLLHLKQGISASGARYTDGIYVFWSKGDEATVYKRDRIVLNNCQLQNPQR	total protein half-life in vivo	13.5
MTKHARFFLLPSFILISAALIAGCNDKGEEKAHVGEPQVTVHIVKTAPLEVKTELPGRTNAYRIAEVRPQVSGIVLNRNFTEGSDVQAGQSLYQIDPATYQANYDSAKGELAKSEAAAAIAHLTVKRYVPLVGTKYISQQEYDQAIADARQADAAVIAAKATVESARINLAYTKVTAPISGRIGKSTVTEGALVTNGQTTELATVQQLDPIYVDVTQSSNDFMRLKQSVEQGNLHKENATSNVELVMENGQTYPLKGTLQFSDVTVDESTGSITLRAVFPNPQHTLLPGMFVRARIDEGVQPDAILIPQQGVSRTPRGDATVLIVNDKSQVEARPVVASQAIGDKWLISEGLKSGDQVIVSGLQKARPGEQVKATTDTPADTASK	total protein half-life in vivo	13.2
MRYIVALTGGIGSGKSTVANAFADLGINVIDADIIARQVVEPGAPALHAIADHFGANMIAADGTLQRRALRERIFANPEEKNWLNALLHPLIQQETQHQIQQATSPYVLWVVPLLVENSLYKKANRVLVVDVSPETQLKRTMQRDDVTREHVEQILAAQATREARLAVADDVIDNNGAPDAIASDVARLHAHYLQLASQFVSQEKP [P0A6I9]	total protein half-life in vivo	9.87

* * *

assay: total protein half-life in vivo (active degradation + dilution); higher = more stable protein; conditions: wild type E. coli NCM3722; growth: N-lim chemostat; doubling time 12 h
Consider the following sequences and their measured total protein half-life in vivo readings.
propertyMeasured: total protein half-life in vivo (h)

itemSequence	readoutValue
MSKTFARSSLCALSMTIMTAHAAEPPTNLDKPEGRLDIIAWPGYIERGQTDKQYDWVTQFEKETGCAVNVKTAATSDEMVSLMTKGGYDLVTASGDASLRLIMGKRVQPINTALIPNWKTLDPRVVKGDWFNVGGKVYGTPYQWGPNLLMYNTKTFPTPPDSWQVVFVEQNLPDGKSNKGRVQAYDGPIYIADAALFVKATQPQLGISDPYQLTEEQYQAVLKVLRAQHSLIHRYWHDTTVQMSDFKNEGVVASSAWPYQANALKAEGQPVATVFPKEGVTGWADTTMLHSEAKHPVCAYKWMNWSLTPKVQGDVAAWFGSLPVVPEGCKASPLLGEKGCETNGFNYFDKIAFWKTPIAEGGKFVPYSRWTQDYIAIMGGR	14.3
MQIIFGEKCVSLLRLFFAAVLMLWCAQTAAYSGQCHTTQGNPYIGVNFGVKTLEEEANTAGVVKDKFYQWNESNDYYVSCDCDKDNVRSGRWAFAADSPLVYLGDNWYKINDYLAAKVLLQVKGSSPTAVPFENVGTGGDTRWHICDPGGQRLGGQGASGNSGSFSLKILQPFVGSVVIPPMALARLYECYNIPAGDSCTTTGTPVLVYYLSGTINSLGSCSVNAGETIEVDLGDVFAANFRVVGHKPLGARTAELAIPVRCNTGNAGLVNVNLSLTATTDPSYPQAIKTSRPGVGVVVTDSQNNIISPAGGTLPLSIPDDADSIARMNVYPVSTTGVPPETGRFEATATVRINFD	11.6
MAANAFVRARIDEDLKNQAADVLAGMGLTISDLVRITLTKVAREKALPFDLREPNQLTIQSIKNSEAGIDVHKAKDADDLFDKLGI	4.6
MVSRYVPDMGDLIWVDFDPTKGSEQAGHRPAVVLSPFMYNNKTGMCLCVPCTTQSKGYPFEVVLSGQERDGVALADQVKSIAWRARGATKKGTVAPEELQLIKAKINVLIG [P0AE70]	9.87
MKRASLLTLTLIGAFSAIQAAWAVDYPLPPTGSRLVGQNQTYTVQEGDKNLQAIARRFDTAAMLILEANNTIAPVPKPGTTITIPSQLLLPDAPRQGIIVNLAELRLYYYPPGENIVQVYPIGIGLQGLETPVMETRVGQKIPNPTWTPTAGIRQRSLERGIKLPPVVPAGPNNPLGRYALRLAHGNGEYLIHGTSAPDSVGLRVSSGCIRMNAPDIKALFSSVRTGTPVKVINEPVKYSVEPNGMRYVEVHRPLSAEEQQNVQTMPYTLPAGFTQFKDNKAVDQKLVDKALYRRAGYPVSVSSGATPAASNAPSVESAQNGEPEQGNMLRVTQ	9.08
MDSFPAIEIDKVKAWDFRLANINTSECLNVAYGVDANYLDGVGVSITSIVLNNRHINLDFYIIADVYNDGFFQKIAKLAEQNQLRITLYRINTDKLQCLPCTQVWSRAMYFRLFAFQLLGLTLDRLLYLDADVVCKGDISQLLHLGLNGAVAAVVKDVEPMQEKAVSRLSDPELLGQYFNSGVVYLDLKKWADAKLTEKALSILMSKDNVYKYPDQDVMNVLLKGMTLFLPREYNTIYTIKSELKDKTHQNYKKLITESTLLIHYTGATKPWHKWAIYPSVKYYKIALENSPWKDDSPRDAKSIIEFKKRYKHLLVQHHYISGIIAGVCYLCRKYYRK	10.3

* * *

assay: total protein half-life in vivo (active degradation + dilution); higher = more stable protein; conditions: wild type E. coli NCM3722; growth: C-lim chemostat; doubling time 3 h

itemSequence	unitSpec	total protein half-life in vivo
MVKLPPLSLYIHIPWCVQKCPYCDFNSHALKGEVPHDDYVQHLLNDLDNDVAYAQGREVKTIFIGGGTPSLLSGPAMQTLLDGVRARLPLAADAEITMEANPGTVEADRFVDYQRAGVNRISIGVQSFSEEKLKRLGRIHGPQEAKRAAKLASGLGLRSFNLDLMHGLPDQSLEEALGDLRQAIELNPPHLSWYQLTIEPNTLFGSRPPVLPDDDALWDIFEQGHQLLTAAGYQQYETSAYAKPGYQCQHNLNYWRFGDYIGIGCGAHGKVTFPDGRILRTTKTRHPRGFMQGRYLESQRDVEATDKPFEFFMNRFRLLEAAPRVEFIAYTGLCEDVIRPQLDEAIAQGYLTECADYWQITEHGKLFLNSLLELFLAE	h	3.01

* * *

experiment: total protein half-life in vivo (active degradation + dilution); higher = more stable protein; conditions: E. coli NCM3722 delta-lon; growth: N-lim chemostat; doubling time 6 h
propertyMeasured: total protein half-life in vivo (h)

itemSequence	readoutValue
MANWQSIDELQDIASDLPRFIHALDELSRRLGLNITPLTADHISLRCHQNATAERWRRGFEQCGELLSENMINGRPICLFKLHEPVQVAHWQFSIVELPWPGEKRYPHEGWEHIEIVLPGDPETLNARALALLSDEGLSLPGISVKTSSPKGEHERLPNPTLAVTDGKTTIKFHPWSIEEIVASEQSA	3.16
MEPLREIRNRLLNGWQLSKMHTFEVAARHQSFALAAEELSLSPSAVSHRINQLEEELGIQLFVRSHRKVELTHEGKRVYWALKSSLDTLNQEILDIKNQELSGTLTLYSRPSIAQCWLVPALGDFTRRYPSISLTVLTGNDNVNLQRAGIDLAIYFDDAPSAQLTHHFLMDEEILPVCSPEYAQRHALTNTVINLCHCTLLHDRQAWSNDSGTDEWHSWAQHYAVNLPTSSGIGFDRSDLAVIAAMNHIGVAMGRKRLVQKRLASGELVAPFGDMTVKCHQHYYITTLPGRQWPKIEAFIIWLREQVKTTS	7.48
MSLSRTQIVNWLTRCGDIFSTESEYLTGLDREIGDADHGLNMNRGFSKVVEKLPAIADKDIGFILKNTGMTLLSSVGGASGPLFGTFFIRAAQATQARQSLTLEELYQMFRDGADGVISRGKAEPGDKTMCDVWVPVVESLRQSSEQNLSVPVALEAASSIAESAAQSTITMQARKGRASYLGERSIGHQDPGATSVMFMMQMLALAAKE	4.75
MKNKADNKKRNFLTHSEIESLLKAANTGPHAARNYCLTLLCFIHGFRASEICRLRISDIDLKAKCIYIHRLKKGFSTTHPLLNKEVQALKNWLSIRTSYPHAESEWVFLSRKGNPLSRQQFYHIISTSGGNAGLSLEIHPHMLRHSCGFALANMGIDTRLIQDYLGHRNIRHTVWYTASNAGRFYGIWDRARGRQRHAVL [P0ADH5]	1.9
MQKQAELYRGKAKTVYSTENPDLLVLEFRNDTSAGDGARIEQFDRKGMVNNKFNYFIMSKLAEAGIPTQMERLLSDTECLVKKLDMVPVECVVRNRAAGSLVKRLGIEEGIELNPPLFDLFLKNDAMHDPMVNESYCETFGWVSKENLARMKELTYKANDVLKKLFDDAGLILVDFKLEFGLYKGEVVLGDEFSPDGSRLWDKETLEKMDKDRFRQSLGGLIEAYEAVARRLGVQLD [P0A7D7]	5.32
MRWLPFIAIFLYVYIEISIFIQVAHVLGVLLTLVLVIFTSVIGMSLVRNQGFKNFVLMQQKMAAGENPAAEMIKSVSLIIAGLLLLLPGFFTDFLGLLLLLPPVQKHLTVKLMPHLRFSRMPGGGFSAGTGGGNTFDGEYQRKDDERDRLDHKDDRQD	6.06
MKQLWFAMSLVTGSLLFSANASATPASGALLQQMNLASQSLNYELSFISINKQGVESLRYRHARLDNRPLAQLLQMDGPRREVVQRGNEISYFEPGLEPFTLNGDYIVDSLPSLIYTDFKRLSPYYDFISVGRTRIADRLCEVIRVVARDGTRYSYIVWMDTESKLPMRVDLLDRDGETLEQFRVIAFNVNQDISSSMQTLAKANLPPLLSVPVGEKAKFSWTPTWLPQGFSEVSSSRRPLPTMDNMPIESRLYSDGLFSFSVNVNRATPSSTDQMLRTGRRTVSTSVRDNAEITIVGELPPQTAKRIAENIKFGAAQ [P0AFX9]	5.9
MTRPIQASLDLQALKQNLSIVRQAATHARVWSVVKANAYGHGIERIWSAIGATDGFALLNLEEAITLRERGWKGPILMLEGFFHAQDLEIYDQHRLTTCVHSNWQLKALQNARLKAPLDIYLKVNSGMNRLGFQPDRVLTVWQQLRAMANVGEMTLMSHFAEAEHPDGISGAMARIEQAAEGLECRRSLSNSAATLWHPEAHFDWVRPGIILYGASPSGQWRDIANTGLRPVMTLSSEIIGVQTLKAGERVGYGGRYTARDEQRIGIVAAGYADGYPRHAPTGTPVLVDGVRTMTVGTVSMDMLAVDLTPCPQAGIGTPVELWGKEIKIDDVAAAAGTVGYELMCALALRVPVVTV	3.89
MKLFYKPGACSLASHITLRESGKDFTLVSVDLMKKRLENGDDYFAVNPKGQVPALLLDDGTLLTEGVAIMQYLADSVPDRQLLAPVNSISRYKTIEWLNYIATELHKGFTPLFRPDTPEEYKPTVRAQLEKKLQYVNEALKDEHWICGQRFTIADAYLFTVLRWAYAVKLNLEGLEHIAAFMQRMAERPEVQDALSAEGLK [P0A9D2]	6.34
MLRFSANLSMLFGEYDFLARFEKAAQCGFRGVEFMFPYDYDIEELKHVLASNKLEHTLHNLPAGDWAAGERGIACIPGREEEFRDGVAAAIRYARALGNKKINCLVGKTPAGFSSEQIHATLVENLRYAANMLMKEDILLLIEPINHFDIPGFHLTGTRQALKLIDDVGCCNLKIQYDIYHMQRMEGELTNTMTQWADKIGHLQIADNPHRGEPGTGEINYDYLFKVIENSDYNGWVGCEYKPQTTTEAGLRWMDPYR	4.98
MAFQVKIHQIRAFVEVARQGSIRGASRMLNMSQPALSKSIQELEEGLAAQLFFRRSKGVTLTDAGESFYQHASLILEELRAAQEDIRQRQGQLAGQINIGMGASISRSLMPAVISRFHQQHPQVKVRIMEGQLVSMINELRQGELDFTINTYYQGPYDHEFTFEKLLEKQFAIFCRPGHPAIGARSIKQLLDYSWTMPTPHGSYYKQLSELLDDQAQTPQVGVVCETFSACISLVAKSDFLSKLPEEMGCDPLHGQGLVMLPVSEILPKAAYYLIQRRDSRQTPLTASLITQFRRECGYLQS	2.39
MRVLVVEDNALLRHHLKVQIQDAGHQVDDAEDAKEADYYLNEHIPDIAIVDLGLPDEDGLSLIRRWRSNDVSLPILVLTARESWQDKVEVLSAGADDYVTKPFHIEEVMARMQALMRRNSGLASQVISLPPFQVDLSRRELSINDEVIKLTAFEYTIMETLIRNNGKVVSKDSLMLQLYPDAELRESHTIDVLMGRLRKKIQAQYPQEVITTVRGQGYLFELR	4.7
